# IC50 listing for each entry below
# Tested on: OVCAR-3 (Ovarian)
# MEASUREMENT PROTOCOL: Cytotoxicity by MTT assay, OVCAR-3
# Format: cell-based
# TEST CONDITIONS: Homo sapiens, 72 h, three days continuous exposure

MOLECULE: CCc1cccc2c3c([nH]c12)[C@@](CC)(CC(=O)O)OCC3 [R-etodolac]
IC50: > 1000 µM

QUERY: Bench note: what IC50 did CCc1cccc2c3c([nH]c12)C(CC)(CC(=O)O)OCC3 (racemic) [etodolac] show?
RESULT: > 1000 µM

====

# MEASUREMENT PROTOCOL: in vitro
# TEST CONDITIONS: human, primary normal peripheral blood lymphocyte (PBL) cells
# CC50 at 48 h listing for each entry below

Solved entries (count: 5):
MOLECULE: CCc1cccc2c3c([nH]c12)C(CC)(CCOC(C)=O)OCC3 (stereo not shown) [Compound 10]
CC50 at 48 h: 100 to 250 µM

MOLECULE: CCc1cccc2c3c([nH]c12)C(CC)(CCF)OCC3 (stereo not shown) [Compound 3]
CC50 at 48 h: < 100 µM

MOLECULE: CCc1cccc2c3c([nH]c12)C(CC)(CC=O)OCC3 (stereo not shown) [Compound 8]
CC50 at 48 h: < 100 µM

MOLECULE: CCc1cccc2c3c([nH]c12)C(CC)(CC(N)=O)OCC3 (stereo not shown) [Compound 6]
CC50 at 48 h: > 500 µM

MOLECULE: CCc1cccc2c3c([nH]c12)C(CC)(CC(C)=O)OCC3 (stereo not shown) [Compound 13]
CC50 at 48 h: > 750 µM

QUERY: Bench note: what CC50 at 48 h did CCc1cccc2c3c([nH]c12)C(CC)(CCO)OCC3 (stereo not shown) [Compound 1] show?
RESULT: ~500 µM

QUERY: Bench note: what CC50 at 48 h did CCc1cccc2c3c([nH]c12)C(CC)(CC=N)OCC3 (stereo not shown) [Compound 7] show?
RESULT: 250 to 500 µM

QUERY: Bench note: what CC50 at 48 h did CCc1cccc2c3c([nH]c12)C(CC)(CCCl)OCC3 (stereo not shown) [Compound 4] show?
RESULT: < 100 µM

QUERY: Bench note: what CC50 at 48 h did CCc1cccc2c3c([nH]c12)C(CC)(CC(C)O)OCC3 (stereo not shown) [Compound 12] show?
RESULT: 250 to 500 µM

QUERY: Bench note: what CC50 at 48 h did CCc1cccc2c3c([nH]c12)C(CC)(CCOC)OCC3 (stereo not shown) [Compound 2] show?
RESULT: > 750 µM
